Test system: Mus musculus
Test: Anti-inflammatory activity in Swiss albino Mus musculus (mouse) assessed as inhibition of carrageenan-induced paw edema at 100 mg/kg, po administered 60 min prior to crrageenan-challenge measured at 360 min relative to control
Format: functional
# cutoff 20% applies to inhibition in vivo at 100 mg/kg; >= gives Criterion met, < gives Criterion not met

// known answers, use as guide
| entry.smiles | class.assignment |
| --- | --- |
| O=c1ccc(-c2ccccc2)nn1CCN1CCN(c2ccccc2)CC1 | Criterion not met |
| O=c1ccc(-c2ccc(Cl)cc2)nn1CCN1CCN(c2ccc(Cl)cc2)CC1 | Criterion met |
| COc1ccc(N2CCN(CCn3nc(-c4ccc(Cl)cc4)ccc3=O)CC2)cc1 | Criterion not met |
| O=c1ccc(-c2ccccc2)nn1CCN1CCN(c2ccc(Cl)cc2)CC1 | Criterion not met |
| O=c1ccc(-c2ccc(Cl)cc2)nn1CCN1CCN(c2ccc(F)cc2)CC1 | Criterion met |

Given the entry COc1ccc(-c2ccc(=O)n(CCN3CCN(c4ccc(Cl)cc4)CC3)n2)cc1 , answer whether its inhibition in vivo at 100 mg/kg meets or surpasses 20%.
Criterion met

I'd appreciate it if you could say whether COc1ccc(-c2ccc(=O)n(CCN3CCN(c4ccc(OC)cc4)CC3)n2)cc1 has inhibition in vivo at 100 mg/kg at least equal to 20%.
Criterion not met

// inclusive: inhibition in vivo at 100 mg/kg at least 20%? input: COc1ccc(-c2ccc(=O)n(CCN3CCN(c4ccc(F)cc4)CC3)n2)cc1
Criterion not met

Every entry's value here was drawn from ChEMBL document CHEMBL3045332.
